target: T1, human MSLN-R2-his protein (human, UniProt Q13421 391-486); assay: ELISA on coated antigen, antibody 0.001 nM
T1 construct: Self-made in HEK293E cells; also called human MSLN-R2 protein; hMSLN-R2-his; not shown: His tag
T1 sequence (Q13421 other isoform, or with tags, fused parts or gaps): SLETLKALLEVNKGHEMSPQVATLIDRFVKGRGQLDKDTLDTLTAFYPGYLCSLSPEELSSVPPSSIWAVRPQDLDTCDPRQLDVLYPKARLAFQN
outcome-measure: OD450 (OD450)
Respond with the bare value in OD450.

| binder | OD450, OD450 |
| --- | --- |
| S009-F2.39.3 (antibody, human IgG1, kappa, V domains shown, Human-murine chimeric antibody: murine VH/VL on human IgG1 heavy and kappa light constant regions) VH: QVQLQQPGTELVKPGASVKLSCKASGYTFTNYWMHWVKQRPGQGLEWIGNINPSSGDSYYNERFMSKAKMTVDKSSSTAYMQLSSLTSEDSAVYYCARSGGLWLAFWGPGTLVTVSA VL: DIVMTQSPSSLAMSVGQKVTMSCKSSQTLLNSVSQNNYLAWYQQKPGQSPTLLVYFASTRESGVPDRFIGGGSGTDFTLTISSVQAEDLADYFCQQHYRTPYTFGGGTNLEIKR | 0.05 |
| S009-F2.23.12 (antibody, human IgG1, kappa, V domains shown, Human-murine chimeric antibody: murine VH/VL on human IgG1 heavy and kappa light constant regions) VH: QVQLQQPGTELVKPGASVKLSCKASGYTFTNYWMHWVKQRPGQGLEWIGNINPSNGGPYYNERFRSKATLTVDKSSSTAYMQLSSLTSEDSAVYYCARPYYGSSYGYFDYWGQGTTLTVSS VL: DIQMTQSPSSLSASLGGKVTITCKASQDINKYIAWYQHKPGKGPRLLIHYTSELQPGIPSRFSGNGSGRDYSFSISNLEPEDIATYYCLQYANPLRTFGGGTKLEIKR | 0.05 |

Can you share its OD450? I mean this binder: S009-F2-56.12 (antibody, human IgG1, kappa, V domains shown, Human-murine chimeric antibody: murine VH/VL on human IgG1 heavy and kappa light constant regions) VH: DVQLQESGPGMVKPSQSLSLTCTVTGYSITSGYDWHWIRHFPGNKLEWMGYISYSGSTNYNPSLKSRISITHDTSKNHFFLKLKSVTTEDTATYYCARGTGPDYWGQGTTLTVSS VL: DIVMTQSQKFMSTSVGDRVSITCKASQNVRTAVAWYQQKPGQSPKALIHLPSNRHTGVPDRFTGSGSGTDFTLTISNVQSEDLADYFCLQHWNYPLTFGGGTKLEIKR 0.06
